Target: panel of 255 wild-type kinases (Homo sapiens, UniProt P54753)
Sequence (P54753 34-998): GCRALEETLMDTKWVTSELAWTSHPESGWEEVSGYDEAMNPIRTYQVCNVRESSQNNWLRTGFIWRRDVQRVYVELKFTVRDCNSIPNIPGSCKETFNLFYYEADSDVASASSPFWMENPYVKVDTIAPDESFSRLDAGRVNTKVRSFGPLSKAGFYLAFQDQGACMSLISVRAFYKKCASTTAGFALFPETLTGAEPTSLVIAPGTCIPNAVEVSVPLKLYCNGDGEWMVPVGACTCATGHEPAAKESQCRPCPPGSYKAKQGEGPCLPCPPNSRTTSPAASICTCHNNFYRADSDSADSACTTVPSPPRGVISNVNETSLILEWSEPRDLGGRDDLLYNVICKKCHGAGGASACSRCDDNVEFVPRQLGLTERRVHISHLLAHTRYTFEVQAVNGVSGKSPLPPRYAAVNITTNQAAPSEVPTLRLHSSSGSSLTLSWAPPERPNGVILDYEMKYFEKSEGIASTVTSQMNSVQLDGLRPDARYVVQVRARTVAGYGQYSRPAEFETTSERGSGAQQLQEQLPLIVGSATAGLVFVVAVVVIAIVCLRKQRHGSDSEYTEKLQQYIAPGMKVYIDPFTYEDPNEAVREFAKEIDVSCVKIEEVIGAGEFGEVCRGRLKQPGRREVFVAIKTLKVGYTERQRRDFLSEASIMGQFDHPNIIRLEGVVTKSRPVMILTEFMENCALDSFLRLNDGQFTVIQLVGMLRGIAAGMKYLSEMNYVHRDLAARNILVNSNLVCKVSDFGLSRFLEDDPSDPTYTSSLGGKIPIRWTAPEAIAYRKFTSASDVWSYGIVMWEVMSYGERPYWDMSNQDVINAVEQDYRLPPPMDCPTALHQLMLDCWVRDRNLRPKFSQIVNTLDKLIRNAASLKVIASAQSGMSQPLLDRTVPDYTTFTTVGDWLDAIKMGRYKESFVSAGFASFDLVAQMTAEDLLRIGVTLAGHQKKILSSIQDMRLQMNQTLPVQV
Experiment: Kinase panel profiling at 1 µmol/L (MSA or IMAP), percentage inhibition
Assay type: biochemical
Conditions: kinase EPHB3; 1 µmol/L single concentration; read-out: %-inhibition at 1 µmol/L, EPHB3
Provide the recorded inhibition at 1 µM for the entries that follow.
Write down the numeric answer in % and omit the unit.

# input Please look up its inhibition at 1 µM: COc1ccc(CN2C3CC2CN(c2ccc(-c4cc(OCC(C)(C)O)cn5ncc(C#N)c45)cn2)C3)cn1 [selpercatinib]
# output -0.598

# input Fill blank: measured inhibition at 1 µM of the compound C=CC(=O)N1CCC([C@@H]2CCNc3c(C(N)=O)c(-c4ccc(Oc5ccccc5)cc4)nn32)CC1 [zanubrutinib] is ____.
# output -1.32

# input Query (compound): Cn1cnc2c(F)c(Nc3ccc(Br)cc3F)c(C(=O)NOCCO)cc21 [binimetinib] ; field requested: inhibition at 1 µM
# output 3.28

# input Dear colleague, I am looking for the recorded inhibition at 1 µM of the following compound: C[C@H](Nc1ncnc2nc[nH]c12)c1cc2cccc(Cl)c2c(=O)n1-c1ccccc1 [duvelisib]
# output 4

# input Item Cc1cc(Nc2ncnc3ccc(NC4=NC(C)(C)CO4)cc23)ccc1Oc1ccn2ncnc2c1 [tucatinib] has what recorded inhibition at 1 µM?
# output -5.68

# input Field request: inhibition at 1 µM | item: FC(F)(F)c1ccc(CNc2ccc(Cc3c[nH]c4ncc(Cl)cc34)cn2)cn1 [pexidartinib]
# output -7

# input What value of measured inhibition at 1 µM is listed for CO[C@]1(C(=O)N[C@@H](C)c2ccc(-n3cc(F)cn3)nc2)CC[C@H](c2nc(C)cc(Nc3cc(C)[nH]n3)n2)CC1 [pralsetinib] ?
# output -0.435

# input What does the data say about its inhibition at 1 µM? Entry: C[C@H]1Oc2cc(cnc2N)-c2c(nn(C)c2C#N)CN(C)C(=O)c2ccc(F)cc21 [lorlatinib]
# output 13

# input Bench note: what inhibition at 1 µM did COC(=O)N[C@@H](C)CNc1nccc(-c2cn(C(C)C)nc2-c2cc(Cl)cc(NS(C)(=O)=O)c2F)n1 [encorafenib] show?
# output 4

# input Returns the measured inhibition at 1 µM for the input compound. Input: Cc1nc(NC(=O)N2CCC[C@H]2C(N)=O)sc1-c1ccnc(C(C)(C)C(F)(F)F)c1 [alpelisib]
# output -0.582

# input Entry Cn1cnc2c(F)c(Nc3ccc(Br)cc3Cl)c(C(=O)NOCCO)cc21 [selumetinib] has what inhibition at 1 µM?
# output -3

# input Would you kindly share the measured inhibition at 1 µM for CCN1C(=O)N(c2c(F)c(OC)cc(OC)c2F)Cc2cnc3[nH]c(CN4CCOCC4)cc3c21 [pemigatinib] ?
# output -2.52

# input # get_value(readout='inhibition at 1 µM', item= CCn1c(=O)c(-c2cc(NC(=O)Nc3ccccc3)c(F)cc2Br)cc2cnc(NC)cc21 [ripretinib] )
# output 59

# input Record request: inhibition at 1 µM value, item O=C(Nc1cnn2ccc(N3CCC[C@@H]3c3cc(F)ccc3F)nc12)N1CC[C@H](O)C1 [larotrectinib]
# output -0.506

# input Query: inhibition at 1 µM; subject: CCc1nc(C(N)=O)c(Nc2ccc(N3CCC(N4CCN(C)CC4)CC3)c(OC)c2)nc1NC1CCOCC1 [gilteritinib]
# output 8

# input What value of inhibition at 1 µM has been reported for the following compound? COc1cc2ncnc(Nc3ccc(F)c(Cl)c3)c2cc1NC(=O)/C=C/CN1CCCCC1 [dacomitinib]
# output 2

Attribution: paper PMC9516332
